Species on record: Mus musculus
Experiment: Inhibition of ACSL in mouse solubilized bEND.3 cells using [14C]-palmitic acid as substrate assessed as increase in unincorporated radioactivity in media at 15 uM after 2 hrs by liquid scintillation spectrometric analysis
Active and inactive are the calls of the source. The rule behind the calls is not given here.
Answer with one of the outcomes given here: 1 (active), -1 (inactive)

Compound Smiles	Category Label
C=CCCCCCCCCCNO	1
CCC/C=C/C/C=C/C=C/CNc1ccc(C(=O)O)cc1	1
CCC/C=C/C/C=C/CN(O)/N=N/c1ccc(C(=O)O)cc1	1
CCC/C=C/C/C=C/C=N/N1CCCS1(=O)=O	-1

How did this test come out for C=CCCCCCCCCCNc1ccc(C(=O)O)c(O)c1 ?
1

For C=CCCCCCCCCCNc1ccc(C(=O)O)cc1 , which call appears in the assay record?
1

src = ChEMBL document CHEMBL3112439
